Source: the supplement of paper PMC10567573

Would you kindly list protein stability index for each of these variants?
B1: INTS3 (parent)
chain: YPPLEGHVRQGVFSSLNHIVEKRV

Variants of: B1
TEST SUMMARY: protein stability index of a GFP-peptide fusion (GPS, HEK-293T) (PSI 1-6); higher = more stable;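 also: lentivirally expressed fusions sorted by FACS into six bins by GFP to DsRed ratio, PSI derived from sequencing read proportions per bin multiplied by bin number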
ASSAY CONDITIONS: c terminus: a fixed tail appended
One number for each entry.

Examples with answers:
| MUTATION | protein stability index |
| --- | --- |
| R9D | 3.42 |
| I19L | 1.83 |
| P2Y | 2.6 |
| V12R | 3.5 |
| F13A | 3.55 |
| N17S | 2.29 |

Go through the list and state protein stability index for each entry.
1. S14D
2. G11R

3.52
2.18

Go through the list and state protein stability index for each entry.
1. E5N
2. P3L
3. E5F
4. S14Y

2.05
2.98
1.66
1.66

Go through the list and state protein stability index for each entry.
1. K22F
2. E5D
3. H7R
4. G6Q
5. V8I
6. Y1N
7. V8H
8. L4G

3.12
3.54
2.22
2.74
2.38
4.12
2.48
1.35

Go through the list and state protein stability index for each entry.
1. H7Y
2. Y1Q

1: 1.47; 2: 3.48
